# inhibition values compiled below
# EXPERIMENTAL_SYSTEM: Rac GTPase-activating protein 1 (Homo sapiens) (UniProt Q9H0H5)
# Sequence (Q9H0H5 whole entry, looked up): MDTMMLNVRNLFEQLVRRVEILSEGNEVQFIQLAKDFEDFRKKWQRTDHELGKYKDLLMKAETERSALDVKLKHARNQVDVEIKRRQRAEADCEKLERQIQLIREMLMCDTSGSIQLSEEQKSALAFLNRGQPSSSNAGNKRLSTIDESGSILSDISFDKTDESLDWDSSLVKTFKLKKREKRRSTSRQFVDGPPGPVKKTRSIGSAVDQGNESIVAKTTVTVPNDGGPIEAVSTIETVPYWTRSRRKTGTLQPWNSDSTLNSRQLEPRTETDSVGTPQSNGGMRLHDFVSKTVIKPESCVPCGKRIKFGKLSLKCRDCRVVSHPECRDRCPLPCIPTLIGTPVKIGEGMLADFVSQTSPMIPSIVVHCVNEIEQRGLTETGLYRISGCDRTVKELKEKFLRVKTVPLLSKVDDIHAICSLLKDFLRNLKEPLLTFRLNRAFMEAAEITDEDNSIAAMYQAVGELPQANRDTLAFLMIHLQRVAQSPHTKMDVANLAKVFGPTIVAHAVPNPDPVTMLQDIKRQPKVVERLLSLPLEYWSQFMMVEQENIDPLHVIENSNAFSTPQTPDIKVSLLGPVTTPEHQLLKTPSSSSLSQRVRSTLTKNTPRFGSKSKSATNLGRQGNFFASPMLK
# RUN_DESCRIPTION: blockers of MgcRacGAP-driven Rac1 GTP hydrolysis – biochemical, ADP Hunter fluorescence, primary and confirmatory, confirmation (AID 624330);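 also: fluorescence reports GDP produced by GAP-driven GTP hydrolysis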
# REPORTED_CONDITIONS: MgcRacGAP-stimulated Rac1 GTP hydrolysis, at 30 µM, hits give high values, GST-tagged Rac1 F28L mutant substrate
The whole screen tested about 340,000 compounds, of which about 2,100 (0.62%) were called active. Only a sample is shown. Entries with a potency or affinity are not part of this list.
Reply numerically in %, unit not repeated.

Worked examples follow.
COMPOUND: CC(C)(C)OC(=O)NCCCCCNC(=O)c1nc[nH]c1C(=O)NCC(=O)OCc1ccccc1
EXPERIMENTAL_SYSTEM: Rac GTPase-activating protein 1 (Homo sapiens) (UniProt Q9H0H5)
inhibition (%): 5.97
//
COMPOUND: O=C(c1ccc(F)cc1)N1CCC(N2CCCCCC2)CC1
EXPERIMENTAL_SYSTEM: Rac GTPase-activating protein 1 (Homo sapiens) (UniProt Q9H0H5)
inhibition (%): 11
//
COMPOUND: Cc1cc(C(=O)CS(=O)(=O)c2ccccc2)cc(C)c1O
EXPERIMENTAL_SYSTEM: Rac GTPase-activating protein 1 (Homo sapiens) (UniProt Q9H0H5)
inhibition (%): 10.7
//
COMPOUND: CC1=C/C(=C(/c2ccc(O)c(C)c2)c2ccccc2S(=O)(=O)O)C=CC1=O
EXPERIMENTAL_SYSTEM: Rac GTPase-activating protein 1 (Homo sapiens) (UniProt Q9H0H5)
inhibition (%): 19.7
//
COMPOUND: CCN1CCN(CCNC(=O)C2CCCN(Cc3nc(-c4cccc(Cl)c4)oc3C)C2)CC1 (stereo unspecified)
EXPERIMENTAL_SYSTEM: Rac GTPase-activating protein 1 (Homo sapiens) (UniProt Q9H0H5)
inhibition (%): 5.46

Item: CC1=C/C(=C(\c2ccc(O)c(C)c2)c2ccccc2S(=O)(=O)O)C=CC1=O | inhibition: 3.41

Item: O=C(c1ccc(F)cc1)N1CCN(C2CCC(c3ccccc3)CC2)CC1 (stereo unspecified) | inhibition: 12.1

Item: O=C(/C=C/c1cccc([N+](=O)[O-])c1)OCC(=O)N1CCN(C(=O)c2ccco2)CC1 | inhibition: 4.32

Item: COc1cc(/C=C/C(=O)OCC(=O)N2CCCc3ccccc32)ccc1OCC#N | inhibition: 6.56

Item: Cc1[nH]c(=O)[nH]c(=O)c1S(=O)(=O)N1CCCC(C(=O)NCc2ccco2)C1 (stereo unspecified) | inhibition: 4.98

Item: CCC1=C(OC(=O)N(CC)CC)N2C(=O)OC(=NCCOC)[C@]2(Cc2ccccc2)[C@H]2C1=CC[C@H]1C(=O)N(CC(=O)OC)C(=O)[C@H]12 | inhibition: 11.9

###

# EXPERIMENTAL_SYSTEM: Rac GTPase-activating protein 1 (Homo sapiens) (UniProt Q9H0H5)
# RUN_DESCRIPTION: blockers of MgcRacGAP-driven Rac1 GTP hydrolysis – biochemical, ADP Hunter fluorescence, primary and confirmatory, confirmation (AID 624330);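 also: fluorescence reports GDP produced by GAP-driven GTP hydrolysis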
# REPORTED_CONDITIONS: MgcRacGAP-stimulated Rac1 GTP hydrolysis, at 30 µM, hits give high values, GST-tagged Rac1 F28L mutant substrate
Out of some 340,000 compounds screened, about 2,100 (0.62%) were called active. A selection follows. Measured potencies and affinities stand elsewhere.
# inhibition values compiled below
Reply numerically in %, unit not repeated.

Item: O=C(Nc1ccc(Cl)c(Cl)c1)N1N=CCC1c1ccccc1 (stereo unspecified) | inhibition: 0.69

Item: CCOc1ccc(NC(=O)N(CCC(C)C)C2CCN(C(C)=O)CC2)cc1 | inhibition: 4.34

Item: CCN(c1ccc(NS(=O)(=O)c2cc(Cl)ccc2Cl)cc1)C(C)C | inhibition: 10.2

Item: C=CCNc1nc2c3ccccc3n(C(C)=O)c2s1 | inhibition: 24.6

Item: COc1cccc(C(=O)NNC(=O)Cc2csc(N)n2)c1 | inhibition: 10.7

Item: CC(=O)N(C)c1ccc(NS(=O)(=O)c2cc(Cl)ccc2Cl)cc1 | inhibition: 11.1

Item: Cc1ccc(OCCOCCNC(C)(C)C)c([N+](=O)[O-])c1 | inhibition: 29.6

Item: Cc1ccc(NC(=O)COC(=O)C(NS(=O)(=O)c2ccc(Cl)cc2)C(C)O)cc1 (stereo unspecified) | inhibition: 4.48

Item: CN(C)c1ccc(S(=O)(=O)c2ccc(Cl)cc2)cc1 | inhibition: -2.71

Item: Nc1ccccc1NC(=O)NC(=O)c1ccccc1 | inhibition: 12.1

Item: Cc1cc(Cc2cc(C)c(N)cc2C)c(C)cc1N | inhibition: 11.3

###

# EXPERIMENTAL_SYSTEM: Rac GTPase-activating protein 1 (Homo sapiens) (UniProt Q9H0H5)
# RUN_DESCRIPTION: blockers of MgcRacGAP-driven Rac1 GTP hydrolysis – biochemical, ADP Hunter fluorescence, primary and confirmatory, confirmation (AID 624330);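 also: fluorescence reports GDP produced by GAP-driven GTP hydrolysis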
# REPORTED_CONDITIONS: MgcRacGAP-stimulated Rac1 GTP hydrolysis, at 30 µM, hits give high values, GST-tagged Rac1 F28L mutant substrate
Among all 340,000 compounds or so, about 2,100 (0.62%) were called active. These entries were drawn from the full list. Entries with a potency or affinity are not part of this list.
# inhibition values compiled below
Reply numerically in %, unit not repeated.

COMPOUND: C=CCC1CCC/C(=N\NS(=O)(=O)c2ccc(C)cc2)C1 (configuration not stated)
UNIT_NAME: %
inhibition: -4.06
--
COMPOUND: CCn1c(COc2ccc(=O)n(-c3ccccc3)n2)nnc1SC
UNIT_NAME: %
inhibition: 7.04
--
COMPOUND: CC[C@@H](C)[C@@H](C(=O)N1CCN(C(=O)OC(C)(C)C)CC1)n1cc(CCCCNC(=O)OC(C)(C)C)nn1
UNIT_NAME: %
inhibition: 7.52
--
COMPOUND: Cn1cc2ccc(N)cc2n1
UNIT_NAME: %
inhibition: 6.58
--
COMPOUND: Cc1ccc(OCCNC(=O)c2ccc(C)cc2)cc1
UNIT_NAME: %
inhibition: -0.09
--
COMPOUND: CCCCNc1c(-c2ccc(SC3CCCCC3)c(OC)c2)nc2ccc(C)cn12
UNIT_NAME: %
inhibition: 2.06
--
COMPOUND: CCN(Cc1ccncc1)Cc1ccc(Br)cc1
UNIT_NAME: %
inhibition: 28
--
COMPOUND: Cc1ccc(NC(=O)N2CCCc3ccccc32)cc1C
UNIT_NAME: %
inhibition: 3.97

Item: COc1ccc(CNCc2ccncc2)c(OC)c1 | inhibition: 5.34

Item: CN(CC(=O)Nc1cccc(F)c1)C(=O)CSc1ccccc1 | inhibition: 1.63

Item: Cc1ccc2cc(N)ccc2n1 | inhibition: 10.9

Item: O=C(CN1C(=O)COc2ccccc21)N1CCc2ccccc2C1 | inhibition: 2.34

###

# EXPERIMENTAL_SYSTEM: Rac GTPase-activating protein 1 (Homo sapiens) (UniProt Q9H0H5)
# RUN_DESCRIPTION: blockers of MgcRacGAP-driven Rac1 GTP hydrolysis – biochemical, ADP Hunter fluorescence, primary and confirmatory, confirmation (AID 624330);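 also: fluorescence reports GDP produced by GAP-driven GTP hydrolysis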
# REPORTED_CONDITIONS: MgcRacGAP-stimulated Rac1 GTP hydrolysis, at 30 µM, hits give high values, GST-tagged Rac1 F28L mutant substrate
The whole screen tested about 340,000 compounds, of which about 2,100 (0.62%) were called active. Only a sample is shown. Entries with a potency or affinity are not part of this list.
# inhibition values compiled below
Reply numerically in %, unit not repeated.

Worked examples follow.
MOLECULE: CCN(CC)c1ccc(NC(=O)c2ccc3c(c2)OCO3)c(C)c1
QUANTITATIVE_RESULT: 24.3

MOLECULE: COc1ccc(/C=N/NC(=O)C(=O)Nc2ccccn2)cc1OC
QUANTITATIVE_RESULT: 13.3

MOLECULE: COc1ccc(/C=N/NC(=O)c2ccc(CSc3nc(C)cc(C)n3)cc2)c(OC)c1OC
QUANTITATIVE_RESULT: 5.29

MOLECULE: CCCCC(CC)C(=O)Nc1ccc(Nc2ccccc2)cc1 (stereo not given)
QUANTITATIVE_RESULT: 22.3

MOLECULE: OCCn1c(-c2ccccc2)csc1=Nc1ccccc1
QUANTITATIVE_RESULT: 7.22

Item: CCC(=O)Nc1ccc(C(=O)c2ccccc2)cc1 | inhibition: 10.1

Item: CCC(=O)Nc1ccc(NC(=S)Nc2ccccc2)cc1 | inhibition: 8.45

###

# EXPERIMENTAL_SYSTEM: Rac GTPase-activating protein 1 (Homo sapiens) (UniProt Q9H0H5)
# RUN_DESCRIPTION: blockers of MgcRacGAP-driven Rac1 GTP hydrolysis – biochemical, ADP Hunter fluorescence, primary and confirmatory, confirmation (AID 624330);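 also: fluorescence reports GDP produced by GAP-driven GTP hydrolysis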
# REPORTED_CONDITIONS: MgcRacGAP-stimulated Rac1 GTP hydrolysis, at 30 µM, hits give high values, GST-tagged Rac1 F28L mutant substrate
The campaign covered roughly 340,000 compounds. About 2,100 (0.62%) were called active. Only a sample is shown. Results with a measured potency or affinity are listed apart.
# inhibition values compiled below
Reply numerically in %, unit not repeated.

COMPOUND: CCCn1c(=O)c2ccccc2n2c(SCC(N)=O)nnc12
inhibition [%]: 18.7
--
COMPOUND: COc1cccc(CNS(=O)(=O)c2ccc(N3CCCC3=O)cc2)c1
inhibition [%]: 1.52
--
COMPOUND: S=C(NC1CCCCC1)N1CCN(C2CCCCC2)CC1
inhibition [%]: 6.75
--
COMPOUND: CCOc1ccc(-c2cc(C(=O)N3CCCC3)c3ccccc3n2)cc1
inhibition [%]: 1.87
--
COMPOUND: COc1ccccc1-c1nnc(SCC(=O)Nc2ccc(S(N)(=O)=O)cc2)n1C
inhibition [%]: 7.69

Next, consider the following compound.
Lab entry: Rac GTPase-activating protein 1 (Homo sapiens) (UniProt Q9H0H5) assay, compound COc1ccc(NC(=O)CSc2nnc3ccc(-c4cccnc4)nn23)c(OC)c1 , inhibition = -2.52
